target: T1, human Kv1.1 (huKv1.1) (Homo sapiens, UniProt Q09470); assay: QPatch automated patch-clamp, CHO-S cells expressing huKv1.1 (Examples 20-21); format: cell-based; settings: four-point curves of FIG. 33, Table E20
T1 construct: expressed in transfected cells; host or cells: Freestyle CHO-S
T1 sequence (Q09470 whole entry): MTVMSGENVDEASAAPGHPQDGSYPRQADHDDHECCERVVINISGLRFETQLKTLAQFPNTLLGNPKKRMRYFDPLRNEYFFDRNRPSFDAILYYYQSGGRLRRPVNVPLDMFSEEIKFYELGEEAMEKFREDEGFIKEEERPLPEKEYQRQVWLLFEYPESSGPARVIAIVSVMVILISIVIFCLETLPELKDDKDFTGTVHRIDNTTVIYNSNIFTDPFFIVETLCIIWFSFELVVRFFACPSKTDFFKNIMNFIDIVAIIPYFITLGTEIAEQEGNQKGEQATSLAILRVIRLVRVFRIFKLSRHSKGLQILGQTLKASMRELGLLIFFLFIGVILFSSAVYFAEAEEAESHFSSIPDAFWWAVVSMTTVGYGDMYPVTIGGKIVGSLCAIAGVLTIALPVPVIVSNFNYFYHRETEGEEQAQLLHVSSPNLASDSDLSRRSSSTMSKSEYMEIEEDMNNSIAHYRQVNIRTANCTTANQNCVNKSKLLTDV
value.kind: IC50 (nM)
Give the value, in units of nM, as a plain number.

Entry KB_A12_Vm24: Vm24 in VL CDR2 of KB_A12, IgG (antibody, V domains shown) VH: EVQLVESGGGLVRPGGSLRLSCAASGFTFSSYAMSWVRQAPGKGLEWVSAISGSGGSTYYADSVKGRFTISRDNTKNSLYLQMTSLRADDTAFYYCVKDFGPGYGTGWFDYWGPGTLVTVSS VL: QSVLTQPPSVSEAPRQRVTITCSGSSSNIGNNAVNWYQQLPGKAPKLLIYAAGRAAAISCVGSPECPPKCRAQGCKNGKCMNRKCKCYYCANSGVSDRFSAAKSGTSASLAINGLRSEDEADYYCAAWDDSLNGYVFGTGTKLTVLG : reported IC50 = ?
1220

What about KB_A12_Odk2 short: truncated OdK2 in VL CDR2 of KB_A12, IgG (antibody, V domains shown) VH: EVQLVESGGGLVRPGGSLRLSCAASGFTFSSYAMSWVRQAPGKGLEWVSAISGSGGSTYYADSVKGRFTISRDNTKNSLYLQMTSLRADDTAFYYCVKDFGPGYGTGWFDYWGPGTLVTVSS VL: QSVLTQPPSVSEAPRQRVTITCSGSSSNIGNNAVNWYQQLPGKAPKLLIYAAGRVKCRGSPQCIQPCKDAGMRFGKCMNGKCHCTPKANSGVSDRFSAAKSGTSASLAINGLRSEDEADYYCAAWDDSLNGYVFGTGTKLTVLG ?
380
